Origin of measurements: FireProtDB (doi:10.1016/j.bpc.2008.09.020)

B1: Cytochrome c-551, P00099 (parent)
chain: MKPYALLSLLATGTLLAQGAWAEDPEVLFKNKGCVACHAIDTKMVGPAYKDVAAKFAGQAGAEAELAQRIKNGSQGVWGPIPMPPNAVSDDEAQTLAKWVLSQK

Variants of: B1
Settings: Pseudomonas aeruginosa (strain ATCC 15692 / DSM 22644 / CIP 104116 / JCM 14847 / LMG 12228 / 1C / PRS 101 / PAO1); pH 3.6; 25 °C; GdnHCl; CD; Sodium acetate 20 mM; structure 451C; whole UniProt chain shown
Items are presented alongside their recorded denaturant m value.
outcome.measure: denaturant m value (kcal/mol/M)

[[record]]
mutation_spec = "F29A V35M V100I"
reported_measurement = 2.45

[[record]]
mutation_spec = "F56Y E65Y"
reported_measurement = 2.7

[[record]]
mutation_spec = "F56Y E65Y V100I"
reported_measurement = 2.57

[[record]]
mutation_spec = "V100I"
reported_measurement = 2.74

[[record]]
mutation_spec = "F29A V35M F56Y E65Y"
reported_measurement = 2.52

[[record]]
mutation_spec = "E65Y"
reported_measurement = 2.88

[[record]]
mutation_spec = "F56Y"
reported_measurement = 2.76

[[record]]
mutation_spec = "F29A V35M F56Y E65Y V100I"
reported_measurement = 2.54

[[record]]
mutation_spec = "F29A V35M"
reported_measurement = 2.56

